The values you see were collected from ChEMBL document CHEMBL1141703.

Tested on: KB
Test Summary: Cytotoxicity against human KB cells
Assay type: cell-based
Reported pIC50 values are given for each entry in this list.
To interpret pIC50, take it as minus log10 of a concentration measured in moles per litre.

The following compounds have reported results that may help.
- Compound: "N#Cc1ccc(-c2cnc3ccc(N[C@H]4CC[C@H](O)CC4)nn23)cc1"
  Experimental Value: 4.62
- Compound: "N#Cc1ccc(-c2cnc3ccc(NCC4CC4)nn23)cc1"
  Experimental Value: 4.67
- Compound: "CC(C)[C@@H](CO)Nc1ccc2ncc(-c3ccc(C(N)=O)cc3)n2n1"
  Experimental Value: 4.89
- Compound: "CC(C)[C@@H](CO)Nc1ccc2ncc(-c3ccc(C#N)cc3)n2n1"
  Experimental Value: 4.28
- Compound: "C[C@@H](CO)Nc1ccc2ncc(-c3ccc(C#N)cc3)n2n1"
  Experimental Value: 4.67

// CCN(CC)CCCC(C)Nc1ccnc2cc(Cl)ccc12 (configuration not stated) : pIC50 value = 4.01

// "COC[C@H](C)Nc1ccc2ncc(-c3ccc(C#N)cc3)n2n1" : pIC50 value = 4.59

###

Reported IC50 values are given for each entry in this list.
Protein target, amino acids: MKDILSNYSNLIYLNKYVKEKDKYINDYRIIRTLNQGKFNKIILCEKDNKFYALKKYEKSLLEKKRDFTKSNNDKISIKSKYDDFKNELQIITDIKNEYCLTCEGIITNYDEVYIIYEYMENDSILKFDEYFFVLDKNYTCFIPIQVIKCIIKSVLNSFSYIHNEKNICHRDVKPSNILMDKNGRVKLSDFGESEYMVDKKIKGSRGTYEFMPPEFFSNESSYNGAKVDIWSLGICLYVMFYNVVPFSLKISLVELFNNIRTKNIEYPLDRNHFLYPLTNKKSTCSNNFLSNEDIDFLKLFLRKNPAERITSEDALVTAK
The response must be a number in µM with no trailing unit.

The following compounds have reported results that may help.
- Compound: "C[C@H](N)c1cccc(N2CCOCC2)c1"
  Reported Property: "IC50"
  Experimental Value: 25
- Compound: "CN(Cc1ccc(F)cc1)c1ccc2ncc(-c3ccc(Cn4ccnc4)cc3)n2n1"
  Reported Property: "IC50"
  Experimental Value: 56
- Compound: "CN(Cc1cccnc1)c1ccc2ncc(-c3ccc(C#N)cc3)n2n1"
  Reported Property: "IC50"
  Experimental Value: 1.26
- Compound: "CN(Cc1ccc(F)cc1)c1ccc2ncc(-c3ccc(N)cc3)n2n1"
  Reported Property: "IC50"
  Experimental Value: 42
- Compound: "N#Cc1ccc(-c2cnc3ccc(N[C@H]4CCCC[C@@H]4O)nn23)cc1 (racemic)"
  Reported Property: "IC50"
  Experimental Value: 0.22
- Compound: "COCCNc1ccc2ncc(-c3ccc(C#N)cc3)n2n1"
  Reported Property: "IC50"
  Experimental Value: 1.4

// moving on: another record for IC50
// "CC(C)[C@@H](CO)Nc1ccc2ncc(-c3ccc(CC(=O)O)cc3)n2n1" : IC50 value = 111

###

Test Summary: Selectivity index, ratio of IC50 for human KB cells to IC50 for Plasmodium falciparum 3D7
Format: toxicity, cell-based
Reported Conditions: read-out: Ratio IC50
Reported selectivity ratio values are given for each entry in this list.
Give a plain numeric answer without units written out.

The following molecules have reported results that may help.
- Compound Smiles: "N#Cc1ccc(-c2cnc3ccc(NCC4CC4)nn23)cc1"
  Reported Property: "selectivity ratio"
  Experimental Value: 2.96
- Compound Smiles: "N#Cc1ccc(-c2cnc3ccc(N[C@H]4CC[C@H](O)CC4)nn23)cc1"
  Reported Property: "selectivity ratio"
  Experimental Value: 23.3
- Compound Smiles: "COC[C@H](C)Nc1ccc2ncc(-c3ccc(C#N)cc3)n2n1"
  Reported Property: "selectivity ratio"
  Experimental Value: 4.25

// "CC(C)[C@@H](CO)Nc1ccc2ncc(-c3ccc(C#N)cc3)n2n1" : selectivity ratio value = 20.1

// "C[C@@H](CO)Nc1ccc2ncc(-c3ccc(C#N)cc3)n2n1" : selectivity ratio value = 4.03

// "CC(C)[C@@H](CO)Nc1ccc2ncc(-c3ccc(C(N)=O)cc3)n2n1" : selectivity ratio value = 5.27

###

Target Or Test System: UniProtKB O96214
pIC50: −log10 of the molar value.
Label Fulfilled when pIC50 >= 6; otherwise Not fulfilled.

- Compound Smiles: "N#Cc1ccc(-c2cnc3ccc(N[C@H]4CC[C@H](O)CC4)nn23)cc1"
  Group Label: "Fulfilled"

Evaluate "C[C@@H](CO)Nc1ccc2ncc(-c3ccc(C#N)cc3)n2n1" : pIC50 at minimum 6?
Fulfilled

Evaluate "N#Cc1ccc(-c2cnc3ccc(NCC4CC4)nn23)cc1" : pIC50 at minimum 6?
Fulfilled

Evaluate "N#Cc1ccc(-c2cnc3ccc(NC4CCCCC4)nn23)cc1" : pIC50 at minimum 6?
Fulfilled

Evaluate "CN(Cc1ccc(F)cc1)c1ccc2ncc(-c3ccc(CO)cc3)n2n1" : pIC50 at minimum 6?
Not fulfilled

Evaluate "CC(C)[C@@H](CO)Nc1ccc2ncc(-c3ccc(C#N)cc3)n2n1" : pIC50 at minimum 6?
Fulfilled

Evaluate "N#Cc1ccc(-c2cnc3ccc(NCc4ccc(N5CCOCC5)cc4)nn23)cc1" : pIC50 at minimum 6?
Not fulfilled

###

Reported IC50 values are given for each entry in this list.
Target Or Test System: UniProtKB O96214
The response must be a number in nM with no trailing unit.

- Compound Smiles: "CC(C)[C@@H](CO)Nc1ccc2ncc(-c3ccc(C(N)=O)cc3)n2n1"
  Target Or Test System: "UniProtKB O96214"
  Reported Property: "IC50"
  Experimental Value: 770

// assay UniProtKB O96214, entry "C[C@H](CO)Nc1ccc2ncc(-c3ccc(C#N)cc3)n2n1" , IC50 value = 1000

// assay UniProtKB O96214, entry "COC[C@H](C)Nc1ccc2ncc(-c3ccc(C#N)cc3)n2n1" , IC50 value = 820

// assay UniProtKB O96214, entry "CN(Cc1ccc(F)cc1)c1ccc2ncc(-c3ccc(C#N)cc3)n2n1" , IC50 value = 1070
